# System Tested: T1, P8A-bN
# T1 chain: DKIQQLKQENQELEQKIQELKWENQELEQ
# Assay Remarks: two-hybrid library CCNG1;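 further: natural log of median RNA to DNA barcode read ratio; higher means stronger binding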
Endpoint: interaction score

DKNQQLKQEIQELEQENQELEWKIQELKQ [P6A-bN] : -0.195
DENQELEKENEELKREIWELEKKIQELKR [4H1222-bH] : 2.04
DKNQQLKQKIQELKQKIQELKWENQELEQ [P12A-bN] : -1.71
DEIQQLEQEIQELEQKNQELEWKNQELKQ [4H56-bN] : -1.19
DEIQQLEQKNQELKQEIQELEWKNQELKQ [P7A-bN] : 2.12

A. DEIQQLEQEIQELEQKNQELKWKNQELKQ [P3A-bN]
B. DKIQQLKQKIQELKQENQELEWENQELEQ [P4A-bN]
Request: // task: argmin of interaction score over [ A , B ] Answer format: the label of the selected item.
Response: B
(B: -0.841, A: -0.0492)
